Taken from patent US20150258192A1.

test-system: Rsk4(h) (Homo sapiens)
Construct: purchased Millipore
Sequence (Q9UK32 whole entry): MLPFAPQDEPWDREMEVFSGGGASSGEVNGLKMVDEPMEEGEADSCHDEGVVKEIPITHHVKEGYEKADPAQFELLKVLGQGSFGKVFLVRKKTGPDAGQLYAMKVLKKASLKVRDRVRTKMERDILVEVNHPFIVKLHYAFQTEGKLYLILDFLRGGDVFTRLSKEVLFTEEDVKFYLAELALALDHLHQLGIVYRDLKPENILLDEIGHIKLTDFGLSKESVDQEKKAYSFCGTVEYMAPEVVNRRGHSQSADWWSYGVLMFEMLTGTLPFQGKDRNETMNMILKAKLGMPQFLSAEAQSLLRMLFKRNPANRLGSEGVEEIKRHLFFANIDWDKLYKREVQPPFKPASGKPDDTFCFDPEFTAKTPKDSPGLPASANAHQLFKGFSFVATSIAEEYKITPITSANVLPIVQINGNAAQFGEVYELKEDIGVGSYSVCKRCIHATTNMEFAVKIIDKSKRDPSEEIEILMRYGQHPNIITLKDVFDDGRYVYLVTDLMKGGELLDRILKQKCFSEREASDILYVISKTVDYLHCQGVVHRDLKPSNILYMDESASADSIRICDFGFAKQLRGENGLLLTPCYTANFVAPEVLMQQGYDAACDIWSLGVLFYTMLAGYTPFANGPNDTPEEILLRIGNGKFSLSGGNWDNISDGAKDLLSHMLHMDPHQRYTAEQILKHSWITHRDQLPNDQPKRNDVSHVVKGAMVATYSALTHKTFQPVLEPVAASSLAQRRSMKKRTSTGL
method-notes: Kinase Profiling Assay
Format: biochemical
assay-context: peptide 100 μM
No end group written: not given here.
property-measured: % activity (%)
Your answer is read as %, so omit the unit and give the number.

Worked cases, answers included:
sequence-string | % activity (%)
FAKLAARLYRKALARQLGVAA [MMI-0300] | 90
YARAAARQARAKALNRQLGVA (Mammal) [MMI-0200] | 125
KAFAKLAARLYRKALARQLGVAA [MMI-0400] | 91
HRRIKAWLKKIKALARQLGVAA (Mammal) [MMI-0500] | 29

Read the next record carefully.
Ask: Name the recorded % activity for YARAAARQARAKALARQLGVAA [MMI-0100] .
Result: 99
